# half-life per record follows
test: Half life in mouse hepatocytes; assay type: ADME, cell-based, Hepatocyte
RECORDED METRIC: half-life (min)

[[record]]
record_smiles = "Cc1ccc(-c2ncc(Cl)cc2-c2ccc(S(C)(=O)=O)cc2)cn1"
recorded_metric = "half-life"
u = "min"
cmp = "="
test_value = 29.2

[[record]]
record_smiles = "CC(C)(O)COc1ncc(C(F)(F)F)cc1-c1ccc(S(C)(=O)=O)cc1"
recorded_metric = "half-life"
u = "min"
cmp = ">"
test_value = 371

[[record]]
record_smiles = "Cc1ccc(-c2cc(C(F)(F)F)nn2-c2ccc(S(N)(=O)=O)cc2)cc1"
recorded_metric = "half-life"
u = "min"
cmp = "="
test_value = 33.1

[[record]]
record_smiles = "CCCOc1nc(OCC(C)(C)O)c(-c2ccc(S(C)(=O)=O)cc2)cc1CO"
recorded_metric = "half-life"
u = "min"
cmp = "="
test_value = 3

[[record]]
record_smiles = "CCc1cnc(OCC(C)(C)O)c(-c2ccc(S(C)(=O)=O)cc2)c1"
recorded_metric = "half-life"
u = "min"
cmp = "="
test_value = 3.2


###

molecular target: Prostaglandin G/H synthase 2 (Homo sapiens); assay: Inhibition of COX2 in human whole blood assessed as reduction in LPS stimulated PGE2 production incubated for 1 hr by ELISA; format: tissue-based
RECORDED METRIC: IC50

[[record]]
record_smiles = "CCCCOc1nc(OCC(C)(C)O)c(-c2ccc(S(N)(=O)=O)cn2)cc1CO"
recorded_metric = "IC50"
test_value = "7230 nM"

[[record]]
record_smiles = "CCCOc1nc(OCC(C)(C)O)c(-c2ccc(S(C)(=O)=O)cc2)cc1CO"
recorded_metric = "IC50"
test_value = "2340 nM"

[[record]]
record_smiles = "CC(C)(O)COc1nc(OCCC(F)(F)F)c(CO)cc1-c1ccc(S(C)(=O)=O)cc1"
recorded_metric = "IC50"
test_value = "877 nM"

[[record]]
record_smiles = "CC(C)(O)COc1nc(OCCCC(F)(F)F)c(CO)cc1-c1ccc(S(C)(=O)=O)cc1"
recorded_metric = "IC50"
test_value = "345 nM"

[[record]]
record_smiles = "CCCCOc1nc(OCC2(O)CCC2)c(-c2ccc(S(C)(=O)=O)cc2)cc1CO"
recorded_metric = "IC50"
test_value = "146 nM"

[[record]]
record_smiles = "CCCCOc1nc(OCC(C)(C)O)c(-c2ccc(S(C)(=O)=O)cc2)cc1CO"
recorded_metric = "IC50"
test_value = "346 nM"


###

target: Prostaglandin G/H synthase 1 (Homo sapiens, UniProt P23219); assay: Inhibition of COX1 in human whole blood assessed as reduction in calcium ionophore-stimulated TXB2 production incubated for 1 hr by ELISA; type: tissue-based
Sequence (P23219 whole entry): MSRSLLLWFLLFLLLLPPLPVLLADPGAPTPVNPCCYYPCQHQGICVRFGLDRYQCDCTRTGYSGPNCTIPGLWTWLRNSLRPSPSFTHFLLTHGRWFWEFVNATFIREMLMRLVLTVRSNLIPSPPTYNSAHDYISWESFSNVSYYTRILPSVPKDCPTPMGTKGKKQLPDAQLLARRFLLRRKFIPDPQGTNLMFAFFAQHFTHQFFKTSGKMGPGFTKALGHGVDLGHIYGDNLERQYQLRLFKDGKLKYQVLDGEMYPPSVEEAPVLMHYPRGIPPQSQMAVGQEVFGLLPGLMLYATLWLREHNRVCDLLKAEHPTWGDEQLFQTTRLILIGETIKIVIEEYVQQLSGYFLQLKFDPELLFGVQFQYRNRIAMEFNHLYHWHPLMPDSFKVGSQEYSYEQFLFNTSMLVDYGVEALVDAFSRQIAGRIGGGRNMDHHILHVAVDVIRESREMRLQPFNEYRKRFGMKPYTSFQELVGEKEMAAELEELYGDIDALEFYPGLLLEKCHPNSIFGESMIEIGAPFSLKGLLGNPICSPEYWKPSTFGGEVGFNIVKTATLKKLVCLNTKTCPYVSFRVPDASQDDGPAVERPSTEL
RECORDED METRIC: IC50

[[record]]
record_smiles = "CC(C)(O)COc1nc(OCCCC(F)(F)F)c(CO)cc1-c1ccc(S(C)(=O)=O)cc1"
test_value = "> 180 µM"

[[record]]
record_smiles = "CCCCOc1nc(OCC(C)(C)O)c(-c2ccc(S(N)(=O)=O)cn2)cc1CO"
test_value = "> 60 µM"

[[record]]
record_smiles = "CCCCOc1nc(OCC(C)(C)O)c(-c2ccc(S(C)(=O)=O)cc2)cc1CO"
test_value = "> 180 µM"

[[record]]
record_smiles = "CC(C)(O)COc1nc(OCCC(F)(F)F)c(CO)cc1-c1ccc(S(C)(=O)=O)cc1"
test_value = "181 µM"

[[record]]
record_smiles = "Cc1ccc(-c2ncc(Cl)cc2-c2ccc(S(C)(=O)=O)cc2)cn1"
test_value = "93.8 µM"

[[record]]
record_smiles = "CCCCOc1nc(OCC2(O)CCC2)c(-c2ccc(S(C)(=O)=O)cc2)cc1CO"
test_value = "> 60 µM"

[[record]]
record_smiles = "CCCOc1nc(OCC(C)(C)O)c(-c2ccc(S(C)(=O)=O)cc2)cc1CO"
test_value = "193 µM"


###

assay: in vivo; details: C57BL/6J, mouse, colon / portal vein plasma, po, 10 mg/kg
Description: Ratio of drug concentration in C57BL/6J mouse colon to portal vein plasma at 10 mg/kg, po measured after 4 hr by liquid chromatographic triple-quadrupole mass spectrometric method
# Kp at 4 h per record follows
RECORDED METRIC: Kp at 4 h

[[record]]
compound = "Cc1ccc(-c2ncc(Cl)cc2-c2ccc(S(C)(=O)=O)cc2)cn1 [ETORICOXIB]"
recorded_metric = "Kp at 4 h"
test_value = 1.2

[[record]]
compound = "CCCOc1nc(OCC(C)(C)O)c(-c2ccc(S(C)(=O)=O)cc2)cc1CO"
recorded_metric = "Kp at 4 h"
test_value = 38

[[record]]
compound = "CCCCOc1nc(OCC(C)(C)O)c(-c2ccc(S(C)(=O)=O)cc2)cc1CO"
recorded_metric = "Kp at 4 h"
test_value = 29.7

[[record]]
compound = "CCCCOc1nc(OCC2(O)CCC2)c(-c2ccc(S(C)(=O)=O)cc2)cc1CO"
recorded_metric = "Kp at 4 h"
test_value = 69.9

[[record]]
compound = "CC(C)(O)COc1nc(OCCCC(F)(F)F)c(CO)cc1-c1ccc(S(C)(=O)=O)cc1"
recorded_metric = "Kp at 4 h"
test_value = 77

[[record]]
compound = "CC(C)(O)COc1nc(OCCC(F)(F)F)c(CO)cc1-c1ccc(S(C)(=O)=O)cc1"
recorded_metric = "Kp at 4 h"
test_value = 101


###

Molecular target: Prostaglandin G/H synthase 2 (Homo sapiens, UniProt P35354)
Sequence (P35354 whole entry): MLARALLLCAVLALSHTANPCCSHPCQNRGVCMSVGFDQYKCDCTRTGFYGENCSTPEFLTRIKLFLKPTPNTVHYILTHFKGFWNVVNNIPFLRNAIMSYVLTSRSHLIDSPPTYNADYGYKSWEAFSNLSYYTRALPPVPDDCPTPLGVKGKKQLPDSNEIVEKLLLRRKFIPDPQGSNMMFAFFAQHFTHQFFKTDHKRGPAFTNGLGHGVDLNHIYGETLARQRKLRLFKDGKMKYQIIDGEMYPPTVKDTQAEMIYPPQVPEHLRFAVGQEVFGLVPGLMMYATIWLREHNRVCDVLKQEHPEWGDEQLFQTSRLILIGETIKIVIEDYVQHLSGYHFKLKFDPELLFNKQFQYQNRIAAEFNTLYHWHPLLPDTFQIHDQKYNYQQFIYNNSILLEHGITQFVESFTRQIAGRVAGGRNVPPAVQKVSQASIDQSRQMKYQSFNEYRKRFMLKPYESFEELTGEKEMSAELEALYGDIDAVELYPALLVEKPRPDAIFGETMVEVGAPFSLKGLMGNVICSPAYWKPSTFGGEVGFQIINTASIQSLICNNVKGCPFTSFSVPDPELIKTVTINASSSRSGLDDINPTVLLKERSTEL
Assay: Inhibition of human recombinant COX-2 using arachidonic acid as substrate preincubated for 60 mins followed by substrate addition for 2 secs by ADPH based fluorometric analysis
RECORDED METRIC: log10 Ki (log10 of the value in nM)

[[record]]
record_smiles = "CCCOc1nc(OCC(C)(C)O)c(-c2ccc(S(C)(=O)=O)cc2)cc1CO"
test_value = 2.06

[[record]]
record_smiles = "CCCCOc1nc(OCC(C)(C)O)c(-c2ccc(S(N)(=O)=O)cn2)cc1CO"
test_value = 1.28

[[record]]
record_smiles = "CCCCOc1nc(OCC2(O)CCC2)c(-c2ccc(S(C)(=O)=O)cc2)cc1CO"
test_value = 0.48

[[record]]
record_smiles = "CCCCOc1nc(OCC(C)(C)O)c(-c2ccc(S(C)(=O)=O)cc2)cc1CO"
test_value = 1.08

[[record]]
record_smiles = "CC(C)(O)COc1nc(OCCCC(F)(F)F)c(CO)cc1-c1ccc(S(C)(=O)=O)cc1"
test_value = 1.08

[[record]]
record_smiles = "CC(C)(O)COc1nc(OCCC(F)(F)F)c(CO)cc1-c1ccc(S(C)(=O)=O)cc1"
test_value = 1.51


###

assay: Drug metabolism in human hepatocytes assessed as metabolic turnover at 10 uM incubated up to 2 hrs by LC/MS-MS analysis; type: ADME, cell-based, Hepatocyte; settings: read-out: Drug metabolism
RECORDED METRIC: metabolised at 2 h, 10 µM (%)

[[record]]
record_smiles = "CCCCOc1nc(OCC(C)(C)O)c(-c2ccc(S(C)(=O)=O)cc2)cc1CO"
recorded_metric = "metabolised at 2 h, 10 µM"
test_value = 100


###

test: Half life in mouse liver microsomes; assay type: ADME, Microsome
Assign Yes whenever half-life does not fall below 10 min; assign No whenever it does.

[[record]]
compound = "Cc1ccc(-c2ncc(Cl)cc2-c2ccc(S(C)(=O)=O)cc2)cn1 [ETORICOXIB]"
assigned_category = "Yes"

[[record]]
compound = "CCCCOc1nc(OCC(C)(C)O)c(-c2ccc(S(C)(=O)=O)cc2)cc1CO"
assigned_category = "No"

[[record]]
compound = "CCCOc1nc(OCC(C)(C)O)c(-c2ccc(S(C)(=O)=O)cc2)cc1CO"
assigned_category = "Yes"

[[record]]
compound = "Cc1ccc(-c2cc(C(F)(F)F)nn2-c2ccc(S(N)(=O)=O)cc2)cc1 [CELECOXIB]"
assigned_category = "Yes"

[[record]]
compound = "CC(C)(O)COc1ncc(C(F)(F)F)cc1-c1ccc(S(C)(=O)=O)cc1"
assigned_category = "Yes"

[[record]]
compound = "CCc1cnc(OCC(C)(C)O)c(-c2ccc(S(C)(=O)=O)cc2)c1"
assigned_category = "Yes"

